Assay: NCI Yeast Anticancer Drug Screen. Data for the mlh1 rad18 strain (AID 175)
Details: S. cerevisiae mlh1 rad18 strain growth inhibition; at 50.0 µM
About 79,000 compounds went through this panel and 15% of them were active in at least one assay; those are over-represented in the sample as a whole. The source made the active and inactive calls. No stated cut-off is given here; in the data, active means growth inhibition above about 70%; inactive means the rest.
Possible outcomes: active, inactive

{"compound": "O=c1c(Cl)c(Cl)c(=O)c2sc3cc(Cl)ccc3[nH]c1=2", "category label": "active"}
{"compound": "O=C(O)CCSc1ncnc2nc[nH]c12", "category label": "inactive"}
{"compound": "Cc1ccc2nc(-c3ccc(N)cc3)sc2c1", "category label": "inactive"}
{"compound": "Cn1c(=O)c2c(O)c(-c3ccccc3)c(=O)n3c4ccccc4n(c1=O)c23", "category label": "inactive"}
{"compound": "COc1ccc(C2COc3cc(O)c(O)cc3C2)cc1OC (stereo unspecified)", "category label": "active"}
{"compound": "CCCCCC(/C=N/Nc1nc(C)cc(=O)[nH]1)=C\\c1ccccc1", "category label": "active"}
{"compound": "CC(CC(C)[C@H]1CCC2[C@H]3C(CC(=O)[C@@]21C)[C@@]1(C)CCC(O)C[C@H]1C[C@@H]3O)C(=O)O (stereo partly specified)", "category label": "active"}
{"compound": "CC(=O)Nc1ccc(O)c(=O)cc1", "category label": "active"}
{"compound": "COc1ccc(C(=O)Nc2ccc(Cl)cc2)cc1", "category label": "inactive"}
{"compound": "CC1CCC(NCCOC(=O)c2ccc([N+](=O)[O-])cc2)CC1 (stereo unspecified)", "category label": "inactive"}
{"compound": "Cn1c(C2CCC(=O)N2Cc2ccccc2)n[nH]c1=S (stereo unspecified)", "category label": "active"}

* * *

Test: NCI Yeast Anticancer Drug Screen. Data for the mlh1 rad18 strain (AID 175)
Details: S. cerevisiae mlh1 rad18 strain growth inhibition; at 5.0 µM (retest, dose inferred, filed as 0.5); stronger effect = higher value
This is part of a sample that, as a whole, favours compounds with a hit. Of some 79,000 tested, about 15% had one in any assay.

{"compound": "COC(=O)c1ccc(NN)cc1", "scale unit": "%", "growth inhibition": 4}
{"compound": "C=CC1(C)CCC2C(=CCC3C(C)(C(=O)O)CCCC23C)C1 (stereo not drawn) (tested in a mixture with another compound)", "scale unit": "%", "growth inhibition": 6}
{"compound": "CCN(CC)CCNc1c(OC)cc(C)c2sc3ccccc3c(=O)c12", "scale unit": "%", "growth inhibition": 4}
{"compound": "CSc1nc(=Nc2ccccc2)sn1-c1ccccc1", "scale unit": "%", "growth inhibition": 15}
{"compound": "CCCCCCCCCCCCCCCCN(C)c1ccc(S(=O)(=O)O)cc1[N+](=O)[O-]", "scale unit": "%", "growth inhibition": 59}
{"compound": "CCCCCCCCCCCCCCNCC(OCC)OCC", "scale unit": "%", "growth inhibition": 85}
{"compound": "CC(=O)C(C(C)=O)C1C=CC=CC=C1", "scale unit": "%", "growth inhibition": -139}
{"compound": "CCCCCCCCCC(=O)CC(=O)c1c(O)cccc1O", "scale unit": "%", "growth inhibition": 40}
{"compound": "Cn1c(=O)cc[nH]c1=O", "scale unit": "%", "growth inhibition": -5}
{"compound": "Oc1ccc2cc(Br)ccc2c1", "scale unit": "%", "growth inhibition": 3}
{"compound": "CCOC(=O)CNC(=O)CNC(=O)CNC(c1ccccc1)(c1ccccc1)c1ccccc1", "scale unit": "%", "growth inhibition": 15}
{"compound": "CCOC(=O)/C(=C\\c1cccc(C(F)(F)F)c1)P(=O)(OCC)OCC", "scale unit": "%", "growth inhibition": 13}
{"compound": "O=[N+]([O-])c1ccc(/C=c2\\sc3scc(-c4ccc([N+](=O)[O-])cc4)[n+]3\\c2=C/c2ccc([N+](=O)[O-])cc2)cc1", "scale unit": "%", "growth inhibition": 99}
{"compound": "CCCCCCCCN(CCCCCCCC)Cc1ccc(Br)cc1", "scale unit": "%", "growth inhibition": 97}
{"compound": "CCOC(=O)CC(=O)/C=C/c1ccncc1", "scale unit": "%", "growth inhibition": 1}
{"compound": "COc1ccccc1/C=C1\\NC(=S)N(/C=C2\\C(=O)Oc3ccccc3C2=O)C1=O", "scale unit": "%", "growth inhibition": 9}
{"compound": "CCc1cccc(CC)c1Nc1nc2c(s1)C(=O)c1ccccc1C2=O", "scale unit": "%", "growth inhibition": 99}
{"compound": "COc1ccc2nc(N/N=C/c3ccccn3)cc(C)c2c1", "scale unit": "%", "growth inhibition": 19}
{"compound": "CCCCc1c2c(nc3c1CCC/C3=C\\c1ccccc1)C(=O)C(CN(C)C)CC2 (stereo not drawn)", "scale unit": "%", "growth inhibition": 11}
{"compound": "Cc1cc2c(=O)[nH]c(N)nc2nc1C", "scale unit": "%", "growth inhibition": -21}
{"compound": "CC(C)(C)C(=O)OC(N)/C=C/c1ccccc1 (stereo not drawn)", "scale unit": "%", "growth inhibition": 23}
{"compound": "BrCC1(CBr)COC1", "scale unit": "%", "growth inhibition": 2}
{"compound": "CC(C)C1=CC2=CCC3C(C)(C(=O)O)CCCC3(C)C2CC1 (stereo not drawn) (tested in a mixture with another compound)", "scale unit": "%", "growth inhibition": -3}

* * *

Assay: NCI Yeast Anticancer Drug Screen. Data for the sgs1 mgt1 strain (AID 161);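 further: 0% = growth of cultures given vehicle only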
Details: S. cerevisiae sgs1 mgt1 strain, at 50.0 µM (retest, dose inferred, filed as 5.0), stronger effect = higher value
Compounds without any hit were thinned out: in the full panel of roughly 79,000, 15% have a hit.
Listing: growth inhibition of selected molecules

{"molecule": "CCCCCC(Oc1ccc(Cl)cc1)C(=O)O (stereo unspecified)", "growth inhibition [%]": 85}
{"molecule": "COc1ccc(NC(=O)/C(=C/c2ccccc2)C(C)=O)cc1", "growth inhibition [%]": 98}
{"molecule": "CC1CC(C)CC(C(O)(C(=O)O)C2CC(C)CC(C)C2)C1 (stereo unspecified)", "growth inhibition [%]": 99}
{"molecule": "O=C([O][Sb]([O]C(=O)C(Cl)(Cl)Cl)([c]1ccccc1)([c]1ccccc1)[c]1ccccc1)C(Cl)(Cl)Cl", "growth inhibition [%]": 77}
{"molecule": "CN(C(=O)C(Cl)Cl)c1ccc(-c2csc(-c3ccccc3)n2)cc1", "growth inhibition [%]": 20}
{"molecule": "NC(=Nc1cc2ccccc2c2ccccc12)Nc1cc2ccccc2c2ccccc12", "growth inhibition [%]": 99}
{"molecule": "COC(=O)C1=C(C(=O)OC)C2(C)OC1C(=O)C21CC1 (stereo unspecified)", "growth inhibition [%]": 94}
{"molecule": "OCCC1CCN(CC/C=C2/c3ccc(F)cc3Sc3ccc(C(F)(F)F)cc32)CC1", "growth inhibition [%]": 68}
{"molecule": "COc1cc(NCCCCCNC(C)C)c2ncc(C)c(C)c2c1", "growth inhibition [%]": 23}
{"molecule": "OC(C(=Nc1ccccc1)c1ccccc1)c1ccccc1 (stereo unspecified)", "growth inhibition [%]": 98}
{"molecule": "Cc1c(Cl)ccc2c1NC(=O)C2(O)CC(=O)c1ccc(Cl)cc1 (stereo unspecified)", "growth inhibition [%]": 100}

* * *

Assay: NCI Yeast Anticancer Drug Screen. Data for the rad50 strain (AID 155);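 further: 0% = growth of vehicle-only cultures of the same strain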
Settings: S. cerevisiae rad50 strain growth inhibition; at 50.0 µM (retest, dose inferred, filed as 5.0)
About 79,000 compounds went through this panel and 15% of them were active in at least one assay; those are over-represented in the sample as a whole. Calls of active or inactive are those of the source. No stated cut-off is given here; in the data, active means growth inhibition above about 70%; inactive means the rest.
Labels: TRUE (active), FALSE (inactive)

{"molecule": "O=C(CC1(O)CCCCC1)OC1CCCC1", "category label": "FALSE"}
{"molecule": "NC(=O)N/N=C1/CC2CCCCC2c2ccccc21 (stereo unspecified)", "category label": "TRUE"}
{"molecule": "CCOC(=O)c1c(N)sc2c1CCCCC2", "category label": "FALSE"}
{"molecule": "c1ccc([CH2][Sn]([CH2]c2ccccc2)([S]c2cccc3cccnc23)[S]c2cccc3cccnc23)cc1", "category label": "FALSE"}
{"molecule": "Nc1ccccc1/C=C/c1c[nH]c2ccccc12", "category label": "TRUE"}
{"molecule": "CCCCCCCCN(CCCCCCCC)Cc1ccc(Br)cc1", "category label": "TRUE"}

* * *

// values below are reported growth inhibition
Assay: NCI Yeast Anticancer Drug Screen. Data for the rad50 strain (AID 155);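 further: 0% = growth of vehicle-only cultures of the same strain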
Conditions: S. cerevisiae rad50 strain growth inhibition; at 50.0 µM (retest, dose inferred, filed as 5.0); stronger effect = higher value
The panel holds about 79,000 compounds, 15% with a hit somewhere; the sample as a whole holds those more often. The source made the active and inactive calls. No stated cut-off is given here; in the data, active means growth inhibition above about 70%; inactive means the rest.
measured attribute: growth inhibition

{"molecule": "Cc1nc(N)sc1N=Nc1cc(Cl)c([N+](=O)[O-])cc1Cl", "measured attribute": "growth inhibition", "observed value": "26% (inactive)"}
{"molecule": "COC(=O)c1c(COC(=O)NC(C)C)c2n(c1C)CS(=O)(=O)C2", "measured attribute": "growth inhibition", "observed value": "-8% (inactive)"}
{"molecule": "COc1cccc2c1C(=O)c1c(O)c3c(c(O)c1C2=O)C[C@@](O)(/C(C)=N\\NC=O)C[C@@H]3OC1CC(N)C(O)C(C)O1 (some centres undefined)", "measured attribute": "growth inhibition", "observed value": "86% (active)"}
{"molecule": "CC1C(O)Oc2cc3c(cc2C1c1ccccc1O)OCO3 (centres undefined)", "measured attribute": "growth inhibition", "observed value": "77% (active)"}
{"molecule": "COc1cc2c(cc1OC)C(=O)C(C)(c1ccccc1)NC2 (centres undefined)", "measured attribute": "growth inhibition", "observed value": "2% (inactive)"}
{"molecule": "CC(=O)Nc1ccc2c(c1)C(S)c1ccccc1-2 (centres undefined)", "measured attribute": "growth inhibition", "observed value": "32% (inactive)"}
{"molecule": "Clc1ccc2ns[s+]c2c1", "measured attribute": "growth inhibition", "observed value": "78% (active)"}
{"molecule": "c1cc2c(cc1CCCCCCCCCCc1ccc3c(c1)CCC3)CCC2", "measured attribute": "growth inhibition", "observed value": "-5% (inactive)"}
{"molecule": "C/C=C/C/S(=N\\S(=O)(=O)c1ccc(C)cc1)c1ccccc1 (centres undefined)", "measured attribute": "growth inhibition", "observed value": "93% (active)"}
{"molecule": "Oc1cc2ccccc2cc1O", "measured attribute": "growth inhibition", "observed value": "90% (active)"}
{"molecule": "CC(=O)OC1CC2Cc3ccccc3C3(O)COC213 (centres undefined)", "measured attribute": "growth inhibition", "observed value": "48% (inactive)"}
{"molecule": "CC1CCC(NCCOC(=O)c2ccc([N+](=O)[O-])cc2)CC1 (centres undefined)", "measured attribute": "growth inhibition", "observed value": "23% (inactive)"}
{"molecule": "Clc1cc(Cl)c2cc3cccc[n+]3cc2c1Cl", "measured attribute": "growth inhibition", "observed value": "19% (inactive)"}
{"molecule": "CN(N(P(c1ccccc1)c1ccccc1)P(c1ccccc1)c1ccccc1)P(c1ccccc1)c1ccccc1", "measured attribute": "growth inhibition", "observed value": "2% (inactive)"}
{"molecule": "Clc1ccc(-c2nnc(-c3ccccn3)o2)c(Cl)c1", "measured attribute": "growth inhibition", "observed value": "99% (active)"}
{"molecule": "CN(C)c1ccc(-c2c(C#N)c(S)n(NS(=O)(=O)c3ccccc3)c(=O)c2C#N)cc1", "measured attribute": "growth inhibition", "observed value": "96% (active)"}
{"molecule": "CCCCCCCCCCCCOC(=O)CC1CC(C(C)=O)C1(C)C (centres undefined)", "measured attribute": "growth inhibition", "observed value": "-9% (inactive)"}
{"molecule": "O=C(O)CSC(=S)N1CCCC1", "measured attribute": "growth inhibition", "observed value": "5% (inactive)"}
{"molecule": "CC(C(=O)c1ccc2cc(Br)c3ccccc3c2c1)N(C)C (centres undefined)", "measured attribute": "growth inhibition", "observed value": "99% (active)"}
{"molecule": "Cc1nc(N)nn1C", "measured attribute": "growth inhibition", "observed value": "10% (inactive)"}
{"molecule": "Cc1ccc(/C=N/NS(=O)(=O)c2ccccc2)c(C)c1", "measured attribute": "growth inhibition", "observed value": "25% (inactive)"}
{"molecule": "C/C(=N\\NC(=S)N1CCCC1)c1nc2ncccc2[nH]1", "measured attribute": "growth inhibition", "observed value": "97% (active)"}
{"molecule": "CC(C)SC(=S)S(=O)(=O)c1ccc(Cl)cc1", "measured attribute": "growth inhibition", "observed value": "69% (inactive)"}
{"molecule": "FC(F)(F)c1cc(NC(=S)SC2CCCCC2)ccc1Cl", "measured attribute": "growth inhibition", "observed value": "97% (active)"}
